Target: T1, macaca IL6R-his protein (macaca mulatta)
T1 chain: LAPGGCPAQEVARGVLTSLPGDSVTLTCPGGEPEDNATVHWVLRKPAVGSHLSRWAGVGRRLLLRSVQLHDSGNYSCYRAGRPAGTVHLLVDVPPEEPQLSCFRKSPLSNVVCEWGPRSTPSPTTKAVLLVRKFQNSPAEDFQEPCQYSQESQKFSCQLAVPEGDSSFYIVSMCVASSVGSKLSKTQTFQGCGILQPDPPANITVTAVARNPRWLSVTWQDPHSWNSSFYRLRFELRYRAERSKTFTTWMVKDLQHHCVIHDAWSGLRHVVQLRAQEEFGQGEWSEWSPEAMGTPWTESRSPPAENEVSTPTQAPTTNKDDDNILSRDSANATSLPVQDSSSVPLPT
Experiment: indirect ELISA on plate-coated macaca IL6R-his
PARAMETER: pEC50
For clarity, pEC50 is expressed as the negative log10 of concentration in mol/L.

input: Recall and state the measured pEC50 for mouse anti-IL6R monoclonal antibody 1H7 (antibody, V domains shown, Mouse hybridoma mAb) VH: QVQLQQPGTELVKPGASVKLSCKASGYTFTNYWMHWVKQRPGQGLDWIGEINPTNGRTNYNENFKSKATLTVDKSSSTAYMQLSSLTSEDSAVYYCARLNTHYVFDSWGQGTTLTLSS VL: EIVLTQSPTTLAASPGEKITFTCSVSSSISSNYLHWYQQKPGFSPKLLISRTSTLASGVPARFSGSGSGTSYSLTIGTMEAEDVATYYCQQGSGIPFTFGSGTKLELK .
output: 9.67
